meta.source: ChEMBL document CHEMBL1142636

Documented GI50 across a set of compounds
test system: LOX IMVI; experiment: Growth inhibition of human LOX IMVI cells; assay type: functional
Record the value in µM, omitting the unit from your answer.

Compound: COc1ccc2c([nH]c3cc(O)c(C)cc32)c1CC=C(C)C
Measured Target: LOX IMVI
Units: µM
GI50: 4.37

## Task // lookup GI50 for COc1cc(Cn2c3ccccc3c3cc(C)cc(OC)c32)cc2c1[nH]c1ccccc12
## Result 8.13

## Task Fill in: GI50 of CC(C)=CCCC1(C)C=Cc2c(ccc3c2[nH]c2cc(O)c(C)cc23)O1 (stereo not drawn) is ___
## Result 4.57

## Task Could you share which GI50 value was measured for COc1cc(C(=O)O)cc2c1[nH]c1ccccc12 ?
## Result 25.1

---

system: A549; assay: Growth inhibition of human A549 cells; format: functional
Measured Property: GI50

Example results:
Compound: CC1=CC(=O)c2[nH]c3ccccc3c2C1=O
GI50: 25.1 µM
--
Compound: COc1ccc2c([nH]c3cc(O)c(C)cc32)c1CC=C(C)C
GI50: 8.51 µM
--
Compound: Cc1cc2c(cc1O)[nH]c1cc3c(cc12)C=CC(C)(C)O3
GI50: 6.46 µM
--
Compound: COc1cc(C)cc2c1[nH]c1ccccc12
GI50: 1.15 µM
--
Compound: COc1cc(Cc2c(C)cc(OC)c3[nH]c4ccccc4c23)cc2c1[nH]c1ccccc12
GI50: 5.75 µM
--
Compound: COc1cc(C(=O)O)cc2c1[nH]c1ccccc12
GI50: 25.1 µM
--
Compound: CC(C)=CCCC1(C)C=Cc2c(ccc3c2[nH]c2cc(O)c(C)cc23)O1 (centres undefined)
GI50: 6.61 µM
--
Compound: COc1cc(Cn2c3ccccc3c3cc(C)cc(OC)c32)cc2c1[nH]c1ccccc12
GI50: 23.4 µM

Next compound, GI50 to be filled in.
## Task Lab note: need GI50 for C=C(C)C(O)CCC1(C)C=Cc2c(c(C)cc3c2[nH]c2ccccc23)O1 (centres undefined) on A549, anyone have it?
## Result 5.01 µM

---

test system: SNB-19; assay: Growth inhibition of human SNB19 cells; assay type: functional
Below, each entry is listed with its recorded GI50.
Response body: numeric value in µM, unit text excluded.

Reference set (5 entries):
Molecule: CC(C)=CCCC1(C)C=Cc2c(ccc3c2[nH]c2cc(O)c(C)cc23)O1 (centres undefined)
GI50 (µM): 25.1

Molecule: C=C(C)C(O)CCC1(C)C=Cc2c(c(C)cc3c2[nH]c2ccccc23)O1 (centres undefined)
GI50 (µM): 11.5

Molecule: COc1cc(Cc2c(C)cc(OC)c3[nH]c4ccccc4c23)cc2c1[nH]c1ccccc12
GI50 (µM): 5.89

Molecule: Cc1cc2c(cc1O)[nH]c1cc3c(cc12)C=CC(C)(C)O3
GI50 (µM): 25.1

Molecule: COc1ccc2c([nH]c3cc(O)c(C)cc32)c1CC=C(C)C
GI50 (µM): 25.1

## Task // GI50 lookup, key: COc1cc(Cn2c3ccccc3c3cc(C)cc(OC)c32)cc2c1[nH]c1ccccc12
## Result 25.1

## Task Which GI50 reading was recorded for the molecule COc1cc(C)cc2c1[nH]c1ccccc12 ?
## Result 25.1

## Task # query: GI50 of entry COc1cc(C(=O)O)cc2c1[nH]c1ccccc12
## Result 25.1

## Task GI50 lookup needed for CC1=CC(=O)c2[nH]c3ccccc3c2C1=O , thanks.
## Result 25.1
